Biological target: Quinolone resistance protein NorA (Staphylococcus aureus)
Assay: Inhibition of NorA efflux pump in Staphylococcus aureus 1199B assessed as fold reduction of ciprofloxacin MIC at 25 ug/ml
Readout: fold change (FC)
Give bare numbers.

- Cpd smiles: "N#CCc1ccc(NC(=O)/C=C/C=C/c2ccc3c(c2)OCO3)cc1"
  fold change (FC): 2
- Cpd smiles: "COC(=O)[C@H]1[C@H]2C[C@@H]3c4[nH]c5cc(OC)ccc5c4CCN3C[C@H]2C[C@@H](OC(=O)c2cc(OC)c(OC)c(OC)c2)[C@@H]1OC"
  fold change (FC): 4

Provide reported fold change (FC) for each item, in the same order as listed.
1. CC(C)N(C(=O)/C=C/C=C/c1ccc2c(c1)OCO2)C(C)C
2. CCN(CC)C(=O)/C=C/C=C/c1ccc2c(c1)OCO2
3. CN1CCN(C(=O)/C=C/C=C/c2ccc3c(c2)OCO3)CC1
4. CC(=O)Nc1ccc(NC(=O)/C=C/C=C/c2ccc3c(c2)OCO3)cc1
5. CC(=O)Nc1ccccc1NC(=O)/C=C/C=C/c1ccc2c(c1)OCO2
6. CC(C)CNC(=O)/C=C/C=C/c1ccc2c(c1)OCO2

a:
[2, 2, 2, 4, 4, 2]

Provide reported fold change (FC) for each item, in the same order as listed.
1. N#Cc1ccc(NC(=O)/C=C/C=C/c2ccc3c(c2)OCO3)cc1
2. CC(C)c1cc2c(c(O)c1O)[C@@]1(C(=O)O)CCCC(C)(C)[C@@H]1CC2

a:
2
2

Provide reported fold change (FC) for each item, in the same order as listed.
1. NC(=O)c1ccc(NC(=O)/C=C/C=C/c2ccc3c(c2)OCO3)cc1
2. CC(C)NC(=O)/C=C/C=C/c1ccc2c(c1)OCO2

a:
1. 2
2. 2

Provide reported fold change (FC) for each item, in the same order as listed.
1. O=C(/C=C/C=C/c1ccc2c(c1)OCO2)Nc1ccccc1CO
2. O=C(/C=C/C=C/c1ccc2c(c1)OCO2)Nc1ccc(C(=O)Nc2ccccc2)cc1

a:
1. 2
2. 4

Provide reported fold change (FC) for each item, in the same order as listed.
1. CC[C@@H](CO)NC(=O)/C=C/C=C/c1ccc2c(c1)OCO2
2. O=C(/C=C/C=C/c1ccc2c(c1)OCO2)Nc1cccc(CO)c1

a:
1: 2; 2: 2

====

Target: Quinolone resistance protein NorA (Staphylococcus aureus)
Assay: Inhibition of NorA efflux pump in Staphylococcus aureus 1199B assessed as fold reduction of ciprofloxacin MIC at 6.25 ug/ml
Readout: fold change (FC)

Completed entries (count: 5):
- Cpd smiles: "CC(=O)Nc1cccc(NC(=O)/C=C/C=C/c2ccc3c(c2)OCO3)c1"
  Measured target: "Quinolone resistance protein NorA (Staphylococcus aureus)"
  fold change (FC): 2
- Cpd smiles: "O=C(/C=C/C=C/c1ccc2c(c1)OCO2)Nc1nc2ccccc2s1"
  Measured target: "Quinolone resistance protein NorA (Staphylococcus aureus)"
  fold change (FC): 2
- Cpd smiles: "CC(=O)Nc1ccc(NC(=O)/C=C/C=C/c2ccc3c(c2)OCO3)cc1"
  Measured target: "Quinolone resistance protein NorA (Staphylococcus aureus)"
  fold change (FC): 2
- Cpd smiles: "O=C(/C=C/C=C/c1ccc2c(c1)OCO2)Nc1ccc(CO)cc1"
  Measured target: "Quinolone resistance protein NorA (Staphylococcus aureus)"
  fold change (FC): 2
- Cpd smiles: "CC(=O)Nc1ccccc1NC(=O)/C=C/C=C/c1ccc2c(c1)OCO2"
  Measured target: "Quinolone resistance protein NorA (Staphylococcus aureus)"
  fold change (FC): 2

Now take the following molecule into account.
q: What value of fold change (FC) has been reported for the following molecule? N#Cc1cccc(NC(=O)/C=C/C=C/c2ccc3c(c2)OCO3)c1
a: 4

====

I'd appreciate it if you could supply fold change (FC) values for the items below.
Target: Quinolone resistance protein NorA (Staphylococcus aureus) (UniProt P0A0J7)
Sequence (whole entry): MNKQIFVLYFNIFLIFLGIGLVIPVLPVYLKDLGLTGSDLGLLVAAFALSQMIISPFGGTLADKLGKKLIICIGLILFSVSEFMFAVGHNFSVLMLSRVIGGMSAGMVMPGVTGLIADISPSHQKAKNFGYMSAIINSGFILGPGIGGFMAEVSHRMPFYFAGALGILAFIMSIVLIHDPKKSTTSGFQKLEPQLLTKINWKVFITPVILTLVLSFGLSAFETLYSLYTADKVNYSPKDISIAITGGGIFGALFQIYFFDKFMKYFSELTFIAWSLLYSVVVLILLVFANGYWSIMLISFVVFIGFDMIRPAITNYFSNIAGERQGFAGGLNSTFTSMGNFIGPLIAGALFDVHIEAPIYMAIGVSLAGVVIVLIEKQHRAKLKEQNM
Assay: Inhibition of NorA efflux pump in Staphylococcus aureus 1199 assessed as fold reduction of ciprofloxacin MIC at 6.25 ug/ml

- Cpd smiles: "O=C(/C=C/C=C/c1ccc2c(c1)OCO2)Nc1nc2ccccc2s1"
  fold change (FC): 2

Provide reported fold change (FC) for each item, in the same order as listed.
1. O=C(/C=C/C=C/c1ccc2c(c1)OCO2)Nc1ccc(CO)cc1
2. CC(=O)Nc1ccccc1NC(=O)/C=C/C=C/c1ccc2c(c1)OCO2

a:
1: 0; 2: 0

====

Target: Quinolone resistance protein NorA (Staphylococcus aureus) (UniProt P0A0J7)
Assay: Inhibition of NorA efflux pump in Staphylococcus aureus 1199 assessed as fold reduction of ciprofloxacin MIC at 25 ug/ml
Readout: fold change (FC)
One number for each entry.

- Cpd smiles: "COC(=O)[C@H]1[C@H]2C[C@@H]3c4[nH]c5cc(OC)ccc5c4CCN3C[C@H]2C[C@@H](OC(=O)c2cc(OC)c(OC)c(OC)c2)[C@@H]1OC"
  fold change (FC): 2

Provide reported fold change (FC) for each item, in the same order as listed.
1. CC(C)N(C(=O)/C=C/C=C/c1ccc2c(c1)OCO2)C(C)C
2. N#Cc1ccc(NC(=O)/C=C/C=C/c2ccc3c(c2)OCO3)cc1
3. CN1CCN(C(=O)/C=C/C=C/c2ccc3c(c2)OCO3)CC1
4. CC(=O)Nc1ccc(NC(=O)/C=C/C=C/c2ccc3c(c2)OCO3)cc1

a:
[2, 0, 0, 2]

====

Target: Quinolone resistance protein NorA (Staphylococcus aureus) (UniProt P0A0J7)
Assay: Inhibition of NorA efflux pump in Staphylococcus aureus 1199 assessed as fold reduction of ciprofloxacin MIC at 25 ug/ml
I'd appreciate it if you could supply fold change (FC) values for the items below.
Answers are plain numbers.

- Cpd smiles: "CC[C@@H](CO)NC(=O)/C=C/C=C/c1ccc2c(c1)OCO2"
  Measured target: "Quinolone resistance protein NorA (Staphylococcus aureus) (UniProt P0A0J7)"
  fold change (FC): 0
- Cpd smiles: "CC(C)c1cc2c(c(O)c1O)[C@@]1(C(=O)O)CCCC(C)(C)[C@@H]1CC2"
  Measured target: "Quinolone resistance protein NorA (Staphylococcus aureus) (UniProt P0A0J7)"
  fold change (FC): 2
- Cpd smiles: "CC(=O)Nc1ccccc1NC(=O)/C=C/C=C/c1ccc2c(c1)OCO2"
  Measured target: "Quinolone resistance protein NorA (Staphylococcus aureus) (UniProt P0A0J7)"
  fold change (FC): 2

Provide reported fold change (FC) for each item, in the same order as listed.
1. NC(=O)c1ccc(NC(=O)/C=C/C=C/c2ccc3c(c2)OCO3)cc1
2. CC(C)NC(=O)/C=C/C=C/c1ccc2c(c1)OCO2
3. O=C(/C=C/C=C/c1ccc2c(c1)OCO2)Nc1ccccc1CO

a:
0
0
0

====

I'd appreciate it if you could supply fold change (FC) values for the items below.
Molecular target: Quinolone resistance protein NorA (Staphylococcus aureus) (UniProt P0A0J7)
Sequence (whole entry): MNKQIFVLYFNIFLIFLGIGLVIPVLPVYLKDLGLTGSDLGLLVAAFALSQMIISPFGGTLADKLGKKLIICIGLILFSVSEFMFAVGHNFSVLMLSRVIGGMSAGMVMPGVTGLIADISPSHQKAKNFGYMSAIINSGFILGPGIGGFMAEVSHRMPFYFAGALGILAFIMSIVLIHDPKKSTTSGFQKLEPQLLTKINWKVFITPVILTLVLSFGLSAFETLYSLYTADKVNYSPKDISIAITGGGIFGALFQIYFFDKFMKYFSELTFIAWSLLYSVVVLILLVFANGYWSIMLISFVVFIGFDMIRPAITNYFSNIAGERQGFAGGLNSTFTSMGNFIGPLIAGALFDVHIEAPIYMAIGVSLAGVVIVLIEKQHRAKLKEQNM
Assay: Inhibition of NorA efflux pump in Staphylococcus aureus 1199 assessed as fold reduction of ciprofloxacin MIC at 6.25 ug/ml
One number for each entry.

Completed entries (count: 2):
- Cpd smiles: "CC(=O)Nc1ccc(NC(=O)/C=C/C=C/c2ccc3c(c2)OCO3)cc1"
  Measured target: "Quinolone resistance protein NorA (Staphylococcus aureus) (UniProt P0A0J7)"
  fold change (FC): 0
- Cpd smiles: "N#Cc1cccc(NC(=O)/C=C/C=C/c2ccc3c(c2)OCO3)c1"
  Measured target: "Quinolone resistance protein NorA (Staphylococcus aureus) (UniProt P0A0J7)"
  fold change (FC): 0

q: Reported fold change (FC) for Quinolone resistance protein NorA (Staphylococcus aureus) (UniProt P0A0J7), given CC(=O)Nc1cccc(NC(=O)/C=C/C=C/c2ccc3c(c2)OCO3)c1 ?
a: 0
